// values below are reported AUC(0-t) at 24 h
- assay explanation: AUC (0 to t) in […] mouse at 200 mg/kg, po after 24 hrs by LC/MS/MS analysis
- Assay type: ADME, organism-based
- Design: time < 24 hr, dose 200 mg/kg, route oral
- measurement setup: plasma
Express the result in µM·h but write the number alone.

{"columns": ["sample smiles", "unit string", "recorded number"],
 "data": [
  ["COCCNS(=O)(=O)Nc1cccc(Cc2c(C)c3cc(Cl)c(OC(=O)N(C)C)cc3oc2=O)c1", "µM·h", 9]
]}

Data request: # return recorded AUC(0-t) at 24 h for entry Cc1c(Cc2cccc(NS(N)(=O)=O)c2)c(=O)oc2cc(OC(=O)N(C)C)c(Cl)cc12
Data returned: 70

Data request: # return recorded AUC(0-t) at 24 h for entry Cc1c(Cc2cccc(NS(=O)(=O)NCCO)c2)c(=O)oc2cc(OC(=O)N(C)C)c(Cl)cc12
Data returned: 14

Data request: # return recorded AUC(0-t) at 24 h for entry Cc1c(Cc2cccc(NS(=O)(=O)NCCC#N)c2)c(=O)oc2cc(OC(=O)N(C)C)c(Cl)cc12
Data returned: 25

Data request: # return recorded AUC(0-t) at 24 h for entry Cc1c(Cc2cccc(N)c2)c(=O)oc2cc(OC(=O)N(C)C)c(Cl)cc12
Data returned: 29

----------
- assay explanation: AUC (infinity) in BALB-nu/nu mouse at 20 mg/kg, po
- Format: ADME, organism-based
- Parameters: time infinity, dose 20 mg/kg, route oral
- measurement setup: plasma
readout kind: AUC(0-inf) (µM·h)
Express the result in µM·h but write the number alone.

Data request: # return recorded AUC(0-inf) for entry Cc1c(Cc2cccc(NS(N)(=O)=O)c2F)c(=O)oc2cc(OC(=O)N(C)C)c(F)cc12
Data returned: 26

----------
- assay explanation: Oral bioavailability in Crlj:CD rat at 10 mg/kg
- Format: ADME, organism-based
- measurement setup: in vivo
readout kind: bioavailability (%)
Express the result in % but write the number alone.

Data request: # return recorded bioavailability for entry Cc1c(Cc2cccc(NS(N)(=O)=O)c2F)c(=O)oc2cc(OC(=O)N(C)C)c(F)cc12
Data returned: 62

----------
// values below are reported AUC(0-t) at 24 h
- assay explanation: AUC (0 to t) in […] mouse at 100 mg/kg, po after 24 hrs by LC/MS/MS analysis
- Assay type: ADME, organism-based
- Parameters: time < 24 hr, dose 100 mg/kg, route oral
- measurement setup: plasma
Express the result in µM·h but write the number alone.

Past entries and their recorded results:
{"columns": ["sample smiles", "recorded number"],
 "data": [
  ["CONS(=O)(=O)Nc1cccc(Cc2c(C)c3cc(Cl)c(OC(=O)N(C)C)cc3oc2=O)c1", 62],
  ["CNS(=O)(=O)Nc1cccc(Cc2c(C)c3cc(Cl)c(OC(=O)N(C)C)cc3oc2=O)c1", 17],
  ["CCS(=O)(=O)Nc1cccc(Cc2c(C)c3cc(Cl)c(OC(=O)N(C)C)cc3oc2=O)c1", 30],
  ["Cc1c(Cc2cccc(NS(=O)(=O)NCC(F)(F)F)c2)c(=O)oc2cc(OC(=O)N(C)C)c(Cl)cc12", 26],
  ["Cc1c(Cc2cccc(NS(C)(=O)=O)c2)c(=O)oc2cc(OC(=O)N(C)C)c(Cl)cc12", 41]
]}

Data request: # return recorded AUC(0-t) at 24 h for entry CNS(=O)(=O)[N-]c1cccc(Cc2c(C)c3cc(Cl)c(OC(=O)N(C)C)cc3oc2=O)c1.[Na+]
Data returned: 51
